Each recorded value in this set is attributed to ChEMBL document CHEMBL1201862.

System: HCC 2998
Test: NCI tumour cell line growth inhibition, 48 h
Activity calls are given as the source filed them. Cut-off read from the data, not from the text of the source: active = GI50 up to about 1.1 µM and inactive = higher.
Possible outcomes: True = active, False = inactive

# molecule, group
rows = [
    ("CC1CCc2sc3nc(S)n(-c4ccccc4)c(=O)c3c2C1 (stereo not drawn)", "False"),
    ("COC(=O)c1cn(CCCC(=O)O)nn1", "False"),
    ("Nc1ccc(Oc2ccc(C34CC5CC(C3)CC(c3ccc(Oc6ccc(N)c(O)c6)cc3)(C5)C4)cc2)cc1O", "False"),
    ("Cc1cc(=O)c2ccccc2n1CCCCCCCCCCn1c(C)cc(=O)c2ccccc21", "False"),
    ("Cc1ccc(-c2nc3ccccc3c(=O)n2NC2OC(CO)C(O)C(O)C2O)cc1 (stereo not drawn)", "False"),
    ("COCc1nc2c(OC)c(-c3nc4ccc(N5CCN(C)CC5)nc4[nH]3)cc(OC)c2[nH]1", "False"),
    ("COC(=O)N1CC[C@@H]2CCC=C(c3cccc4c3OCO4)[C@@H]21", "False"),
    ("N#CC(C(=O)CCC(=O)C(C#N)c1ccccc1)c1ccccc1 (stereo not drawn)", "False"),
    ("CSc1nc(SC)c2c(C)c(Br)[nH]c2n1", "False"),
    ("C/C(=N\\N=C(/[SeH])N1CC2CCC(CC2)C1)c1ccccn1", "True"),
    ("Nc1nc(N)c(NC(=O)CCCO)c(=O)[nH]1", "False"),
    ("CC/C(=N/O)c1ccc(Br)s1", "False"),
    ("COc1ccc(-c2nc3ccc(C)cc3o2)c(OC)c1", "False"),
    ("COc1ccc(/C=C2\\CCS(=O)(=O)c3ccccc3C2=O)cc1", "False"),
    ("Cc1cc(O)nc(NN2C(Cl)C(=O)C2c2ccccc2O)n1 (stereo not drawn)", "False"),
    ("Nc1ccc(S(=O)(=O)Nc2cnc3c(Cl)cccc3n2)cc1", "False"),
    ("CC1=NN(C(=O)c2ccc(Cl)cc2)C(=O)/C1=C/c1ccccc1O", "False"),
    ("O=C(O)CSc1nnc(COc2ccccc2)n1-c1ccccc1", "False"),
    ("CC(=O)NCc1nc(C#N)c(N)o1", "False"),
    ("CCN(CC)c1ccc2cc(C(=O)Nc3ccccc3OC)c(=N)oc2c1", "False"),
    ("CCOC(=O)NC(Nc1ccc(C(=O)OCC)cc1)(C(F)(F)F)C(F)(F)F", "False"),
    ("COC(=O)c1ccc(OCc2ccc3nc(-c4ccccc4)c(Cl)nc3c2)cc1", "False"),
    ("CCOC(=O)C(C)(C)Oc1ccc2c(=O)cc(-c3ccccc3)oc2c1", "False"),
]

* * *

Tested on: SF-268
Assay: NCI tumour cell line growth inhibition, 48 h
Activity calls are given as the source filed them. Rule as the data show it: active = GI50 up to about 1.1 µM and inactive = higher.
Outcomes: Y (active), N (inactive)

# compound, group
records = [
    ("S=C(Nc1ccc(Cl)cc1)SC1CCCCC1", "N"),
    ("Cc1cc(C)[n+](CCOc2ccc(/C(=C(/Cl)c3ccccc3)c3ccccc3)cc2)c(C)c1.[O-][Cl+3]([O-])([O-])[O-]", "Y"),
    ("Cn1c(=O)n2c(=O)n(C)c(=O)n2c1=O", "N"),
    ("O=C1CC(n2ccnc2)c2c(Cl)sc(Cl)c21 (stereo not given)", "N"),
    ("COC(=O)c1ccccc1NC(=O)C(=O)Cc1nc2c3c(ccc2nc1O)C(=O)c1ccccc1C3=O", "N"),
    ("CC(=O)NCc1nc(C#N)c(N)o1", "N"),
    ("C=CCC(NCc1ccccc1)[C@H](OCc1ccccc1)[C@@H]1COC(C)(C)O1 (stereo not given in full)", "N"),
    ("CCOC(=O)CCC(NC(=O)c1ccc(/N=C/c2nc3cc(C(F)(F)F)ccc3nc2-c2ccccc2)cc1)C(=O)OCC (stereo not given)", "N"),
    ("COc1ccc(/C=C2\\CCS(=O)(=O)c3ccccc3C2=O)cc1", "N"),
    ("Oc1[nH]c(Nc2ccc(F)c(Cl)c2)nc2ncnc1-2", "N"),
]

* * *

Test system: K562
Assay: NCI tumour cell line growth inhibition, 48 h
Calls of active or inactive are those of the source. Cut-off read from the data, not from the text of the source: active = GI50 up to about 1.1 µM and inactive = higher.
Classes used: yes for active, no for inactive

# compound, group
rows = [
    ("COc1ccc2[nH]c3c(c2c1)[C@H](c1ccccc1)C[C@@H]1C(=O)N(c2ccccc2)C(=O)[C@H]31", "no"),
    ("CCC(C)C(=O)OC1C(=O)OC2CC3C(C)=CC(=O)C(O)C3(C)C3C4(O)OCC23C1C(C)C4O (stereo not drawn)", "yes"),
    ("C=C1C(=O)O[C@@H]2C[C@@H](C)[C@@H]3C=CC(=O)[C@@]3(C)[C@@H](OC(=O)CC(=O)O[C@H]3[C@@H]4C(=C)C(=O)O[C@@H]4C[C@@H](C)[C@@H]4C=CC(=O)[C@]43C)[C@H]12", "yes"),
]

* * *

Tested on: Malme-3M
Test: NCI tumour cell line growth inhibition, 48 h
The source made the active and inactive calls. Cut-off read from the data, not from the text of the source: active = GI50 up to about 1.1 µM and inactive = higher.

# molecule, GI50
measured = [
    ("CO[C@]12CC(=O)C3(C(C[C@H]4CC5CC=C6C[C@@H](OC(C)=O)CC[C@]6(OC(C)=O)C5C[C@@]43C)C1)C1C[C@H]3[C@@H]4CC=C5C[C@@H](OC(C)=O)CC[C@]5(OC(C)=O)[C@H]4CC[C@]3(C)C12 (stereo partly drawn)", "18.5 µM (inactive)"),
    ("CCOC(=O)C(C)(C)Oc1ccc2c(=O)cc(-c3ccccc3)oc2c1", "22.9 µM (inactive)"),
    ("COC(=O)/C(C#N)=C/c1cc(C(C)(C)C)c(O)c(C(C)(C)C)c1", "5.55 µM (inactive)"),
]

* * *

Test system: SF-268
Assay: NCI tumour cell line growth inhibition, 48 h
The source made the active and inactive calls. Cut-off read from the data, not from the text of the source: active = GI50 up to about 1.1 µM and inactive = higher.
Possible outcomes: active, inactive

# molecule, group
records = [
    ("COc1ccc(-c2nc3ccc(C)cc3o2)c(OC)c1", "inactive"),
    ("Cc1c(O)oc2ccccc2c1=O", "inactive"),
    ("O=C(CC(=O)C1CCOC1=O)C(=O)Nc1cccc(Cl)c1 (stereo unspecified)", "inactive"),
    ("CCOc1ccccc1NC(=O)C(=O)CC(=O)c1c(C)[n+]([O-])c2ccccc2[n+]1[O-]", "inactive"),
    ("Cc1ccc(C(=O)Oc2ccc(/C=C3\\CCC/C(=C\\c4ccc(OC(=O)c5ccc(C)cc5)cc4)C3=O)cc2)cc1", "inactive"),
    ("O=C(Nc1ccccc1)c1cc(S(=O)(=O)n2ccnc2O)c(S)cc1Cl", "inactive"),
    ("COC1=CC(=O)c2c(c(COP(=O)(N(C)CCBr)N(C)CCBr)cn2C)C1=O", "active"),
    ("COC1(OC)CCCCC2c3cccc(OC(C)=O)c3C21OC(C)=O (stereo unspecified)", "inactive"),
    ("CCCO/N=[N+](\\[O-])N(CC)CC", "inactive"),
    ("CCOc1ccccc1/N=N/C1C(=O)N(C(=O)CC(=O)Nc2ccccc2Cl)N=C1C (stereo unspecified)", "inactive"),
    ("Nc1ccc(Oc2ccc(C34CC5CC(C3)CC(c3ccc(Oc6ccc(N)c(O)c6)cc3)(C5)C4)cc2)cc1O", "inactive"),
]

* * *

Tested on: OVCAR-8
Test: NCI tumour cell line growth inhibition, 48 h
Counter-ions that a name gives are not always drawn. Active and inactive are the calls of the source. Rule as the data show it: active = GI50 up to about 1.1 µM and inactive = higher.
Outcome codes: active, inactive

# compound, group
measured = [
    ("CC(C)(C(=O)NN)c1ccccc1", "inactive"),
    ("O=S1(=O)c2ccccc2N2CCCc3cc(Cl)cc1c32", "inactive"),
    ("c1ccc([C@H]2CN3CCSC3=N2)cc1 [LEVAMISOLE HYDROCHLORIDE]", "inactive"),
    ("Nc1ccc(Oc2ccc(C34CC5CC(C3)CC(c3ccc(Oc6ccc(N)c(O)c6)cc3)(C5)C4)cc2)cc1O", "inactive"),
    ("COc1ccc2[nH]c3c(c2c1)[C@H](c1ccccc1)C[C@@H]1C(=O)N(c2ccccc2)C(=O)[C@H]31", "inactive"),
    ("O=C1CC(=O)c2c(Cl)sc(Cl)c21", "inactive"),
    ("CCN1CC(C)Cn2c(=O)[nH]c3cc(Br)cc1c32 (configuration not stated)", "inactive"),
    ("Cn1c(=O)c2c(O)cc(N)nc2n(C)c1=O", "inactive"),
    ("CSC(SC)=C(C(=O)c1ccc(Cl)cc1)n1c(=O)sc2cc(Br)ccc21", "inactive"),
    ("CN(C)S(=O)(=O)c1ccc(Nc2ccc(O)c3c2C(=O)c2c([N+](=O)[O-])ccc(O)c2C3=O)cc1", "inactive"),
    ("NC(=S)N/N=C1\\CCCC\\C1=C/c1ccccc1", "inactive"),
    ("CCOC(=O)c1c(-c2ccccc2)[nH]c2ccc(Cl)cc2c1=O", "inactive"),
    ("CCOC(=O)c1ccc(N2C(=O)Cc3ccccc3C2=O)cc1", "inactive"),
    ("Cc1nn(C(=O)c2ccc(Cl)cc2)c2c1C(/C=C/c1ccccc1)SC(=N)N2 (configuration not stated)", "inactive"),
    ("Cc1nc(O)nc2nc3ccc(Cl)cc3c(NCCNCCO)c12", "inactive"),
    ("CCOC(=O)Oc1cc2c(ccn2C)c2c1c1ccccc1n2C(=O)OCC", "inactive"),
    ("CCOC(=O)Nc1cc2c(c(N)n1)N=C(c1ccc(OC)cc1)CN2", "active"),
    ("Cc1c(O)oc2ccccc2c1=O", "inactive"),
    ("CNC1=C(C)C(=O)C(O)=C([C@H](C)CCC=C(C)C)C1=O", "inactive"),
    ("CN(C)CCCNC(=O)c1cc(NS(=O)(=O)c2ccc3c(c2)C(=O)c2ccccc2C3=O)cn1C", "inactive"),
    ("CC(=O)NC1=C(NCCC(C)C)C(=O)c2ccccc2C1=O", "inactive"),
    ("CN1C(=O)C23CC4=CC=CC(O)C4N2C(=O)C1(CO)SS3 (configuration not stated)", "active"),
]
